- experimental-target: recombinant human mGluR2 (Homo sapiens)
- measurement-protocol: FLIPR Ca2+ mobilization assay, mGluR2 potentiation
- measurement-parameters: CHO dhfr- cells expressing human mGluR2 and Gα16, EC20 concentration of glutamate (900 nM)
experimental-endpoint: EC50 (µM)

compound: FC(F)(F)c1c(C#Cc2ccncc2)ccc2c1nnn2CC1CC1 [Example 35]
EC50 [µM]: 0.012
//
compound: Clc1c(C#Cc2ccncc2)ccc2c1nnn2CC1CC1 [Example 8]
EC50 [µM]: 0.064
//
compound: Cc1cc(C#Cc2ccc3c(nnn3CC3CC3)c2Cl)ccn1 [Example 27]
EC50 [µM]: 0.043

A. Clc1c(C#Cc2cccnc2)ccc2c1nnn2CC1CC1 [Example 7]
B. FC1(C#Cc2ccc3c(nnn3CC3CC3)c2Br)CCNCC1 [Example 4]
Query: Between item A and item B , which reported EC50 is smaller? Bench note: the answer is the label of the chosen record.
Result: A
(A: 0.034 µM, B: 1.22 µM)

----------
- experimental-target: recombinant human mGluR2 (Homo sapiens)
- measurement-protocol: FLIPR Ca2+ mobilization assay, mGluR2 potentiation
- measurement-parameters: CHO dhfr- cells expressing human mGluR2 and Gα16, EC20 concentration of glutamate (900 nM)
experimental-endpoint: EC50 (nM)

Study these solved cases before continuing.
compound: Cc1ncccc1C#Cc1ccc2c(nnn2CC2CC2)c1Cl [Example 16]
experimental-target: recombinant human mGluR2 (Homo sapiens)
endpoint-unit: nM
observed-result: 50
//
compound: C=CC#Cc1ccc2c(nnn2CC2CC2)c1Cl [Example 31]
experimental-target: recombinant human mGluR2 (Homo sapiens)
endpoint-unit: nM
observed-result: 282
//
compound: CN1C(=O)CN(CC#Cc2ccc3c(nnn3CC3CC3)c2Cl)C1=O [Example 30]
experimental-target: recombinant human mGluR2 (Homo sapiens)
endpoint-unit: nM
observed-result: 415
//
compound: Cc1ccncc1C#Cc1ccc2c(nnn2CC2CC2)c1Cl [Example 6]
experimental-target: recombinant human mGluR2 (Homo sapiens)
endpoint-unit: nM
observed-result: 50
//
compound: Nc1cncc(C#Cc2ccc3c(nnn3CC3CC3)c2Cl)c1 [Example 23]
experimental-target: recombinant human mGluR2 (Homo sapiens)
endpoint-unit: nM
observed-result: 98
//
compound: Clc1c(C#Cc2cnccn2)ccc2c1nnn2CC1CC1 [Example 10]
experimental-target: recombinant human mGluR2 (Homo sapiens)
endpoint-unit: nM
observed-result: 80
//
compound: Nc1cc(C#Cc2ccc3c(nnn3CC3CC3)c2Cl)ccn1 [Example 29]
experimental-target: recombinant human mGluR2 (Homo sapiens)
endpoint-unit: nM
observed-result: 31
//
compound: FC(F)(F)c1c(C#Cc2cccnc2)ccc2c1nnn2CC1CC1 [Example 33]
experimental-target: recombinant human mGluR2 (Homo sapiens)
endpoint-unit: nM
observed-result: 4.8
//
compound: CC(C)(C)Cn1nnc2c(Br)c(C#CC3CCN(CC(F)(F)F)CC3)ccc21 [Example 5]
experimental-target: recombinant human mGluR2 (Homo sapiens)
endpoint-unit: nM
observed-result: 123
//
compound: Clc1cncc(C#Cc2ccc3c(nnn3CC3CC3)c2Cl)c1 [Example 19]
experimental-target: recombinant human mGluR2 (Homo sapiens)
endpoint-unit: nM
observed-result: 292

1. Fc1cncc(C#Cc2ccc3c(nnn3CC3CC3)c2Cl)c1 [Example 21]
2. CC(C)(C)Cn1nnc2c(Br)c(C#CC3CCNCC3)ccc21 [Example 2]
3. NC(=O)c1cncc(C#Cc2ccc3c(nnn3CC3CC3)c2Cl)c1 [Example 24]
Query: Endpoint returns the given compounds ordered by ascending EC50. Return value: ordered labels per request.
Result: 3, 1, 2

a. COc1cc(C#Cc2ccc3c(nnn3CC3CC3)c2Cl)ccn1 [Example 28]
b. Clc1c(C#Cc2ccccn2)ccc2c1nnn2CC1CC1 [Example 9]
c. COc1cncc(C#Cc2ccc3c(nnn3CC3CC3)c2Cl)c1 [Example 20]
d. FC(F)(F)c1c(C#Cc2ccccc2)ccc2c1nnn2CC1CC1 [Example 34]
e. OCC#Cc1ccc2c(nnn2CC2CC2)c1Cl [Example 13]
Query: Sort these compounds on EC50 so the largest reading comes first. List labels; respect the requested ordering.
Result: e, a, b, c, d
(e: 576 nM, a: 227 nM, b: 85 nM, c: 50 nM, d: 34 nM)

----------
- experimental-target: recombinant human mGluR2 (Homo sapiens, UniProt Q14416)
- Sequence (Q14416 19-872): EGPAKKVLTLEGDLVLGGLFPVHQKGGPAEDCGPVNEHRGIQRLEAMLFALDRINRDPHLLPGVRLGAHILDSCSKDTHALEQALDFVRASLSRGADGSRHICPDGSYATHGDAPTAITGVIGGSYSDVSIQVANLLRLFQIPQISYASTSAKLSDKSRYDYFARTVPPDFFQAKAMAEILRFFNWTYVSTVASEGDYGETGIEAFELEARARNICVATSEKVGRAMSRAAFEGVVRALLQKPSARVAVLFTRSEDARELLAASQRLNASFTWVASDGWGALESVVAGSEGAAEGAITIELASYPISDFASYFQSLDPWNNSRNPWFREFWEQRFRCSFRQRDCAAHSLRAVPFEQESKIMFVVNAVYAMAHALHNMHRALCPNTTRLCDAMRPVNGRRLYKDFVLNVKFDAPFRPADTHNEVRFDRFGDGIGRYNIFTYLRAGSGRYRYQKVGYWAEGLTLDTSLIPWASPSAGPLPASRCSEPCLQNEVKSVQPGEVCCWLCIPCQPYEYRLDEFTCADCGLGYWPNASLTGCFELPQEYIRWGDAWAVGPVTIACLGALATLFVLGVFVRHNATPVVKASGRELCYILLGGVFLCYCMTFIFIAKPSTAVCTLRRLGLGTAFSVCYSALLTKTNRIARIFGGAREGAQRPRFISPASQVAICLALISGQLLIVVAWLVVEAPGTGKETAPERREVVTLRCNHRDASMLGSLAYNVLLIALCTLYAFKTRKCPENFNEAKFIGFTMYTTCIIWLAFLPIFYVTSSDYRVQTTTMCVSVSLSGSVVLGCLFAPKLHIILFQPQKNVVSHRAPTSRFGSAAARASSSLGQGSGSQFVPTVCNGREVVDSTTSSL
- measurement-protocol: FLIPR Ca2+ mobilization assay, mGluR2 potentiation
- measurement-parameters: CHO dhfr- cells expressing human mGluR2 and Gα16, EC20 concentration of glutamate (900 nM)
pEC50: −log10 of the molar value.
experimental-endpoint: pEC50

A. OCCCC#Cc1ccc2c(nnn2CC2CC2)c1Cl
B. Fc1cc(C#Cc2ccc3c(nnn3CC3CC3)c2Cl)ccn1
Query: Hi! Which is lower in terms of pEC50, the first one A or the second one B ? Bench note: the answer is the label of the chosen record.
Result: A
(A: 6.74, B: 7.11)

P. Cc1ccc(C#Cc2ccc3c(nnn3CC3CC3)c2Cl)cn1
Q. OCCC#Cc1ccc2c(nnn2CC2CC2)c1Cl
R. OCc1cncc(C#Cc2ccc3c(nnn3CC3CC3)c2Cl)c1
Query: Could you please order the items by pEC50, going from the lowest number to the highest? Give the labels in the order requested.
Result: Q, P, R

A. CN1C(=O)CN(CCCC#Cc2ccc3c(nnn3CC3CC3)c2Cl)C1=O
B. CC(C)(C)OC(=O)N1CCC(F)(C#Cc2ccc3c(nnn3CC3CC3)c2Br)CC1
Query: For this pair, A and B , which shows a numerically higher pEC50? Selection: enter the item's label.
Result: A

----------
- experimental-target: recombinant human mGluR2 (Homo sapiens, UniProt Q14416)
- measurement-protocol: FLIPR Ca2+ mobilization assay, mGluR2 potentiation
- measurement-parameters: CHO dhfr- cells expressing human mGluR2 and Gα16, EC20 concentration of glutamate (900 nM)
experimental-endpoint: EC50 (nM)

Here's what some known entries look like.
compound: Cc1cncc(C#Cc2ccc3c(nnn3CC3CC3)c2Cl)c1 [Example 18]
EC50, nM: 57
--
compound: Clc1cc(C#Cc2ccc3c(nnn3CC3CC3)c2Cl)ccn1 [Example 26]
EC50, nM: 299

A. CC(C)(C)Cn1nnc2c(Br)c(C#CC3CCN(C(=O)OC(C)(C)C)CC3)ccc21 [Example 1]
B. Clc1c(C#Cc2ccnnc2)ccc2c1nnn2CC1CC1 [Example 11]
Query: Which value of EC50 is numerically greater: that of A or that of B ? // return label of chosen record
Result: B
(B: 203 nM, A: 100 nM)
